TEST_SUMMARY: yeast display, Sf9 membrane polyspecificity reagent, FACS + sequencing; frameworks hold sequencing errors
METRIC: polyreactivity (PSR sort gate)

>  <SEQUENCE_CONTENT>
QVQLVDSGGGLVQAGGSLRLSCAASGNIFVGNAMGWYRQAPGKERELVAAIRRSGGTTYYADSVKGRFTISRDNAKNTVYLQMNSLKPEDTAVYYCAASRPYQGDYWGQGTQVTVSS

>  <polyreactivity (PSR sort gate)>
low polyreactivity

$$$$
>  <SEQUENCE_CONTENT>
QVQLVESGGGLVQAGGSLRLSCAASGSIFYFNAMGWYRQAPGKERELVARISGSSGRTYFADSVKGRFTISRDNAKNTVYLQMNSLKPEDTAVYYCAARYYTSATMDYWGQGTQVTVSS

>  <polyreactivity (PSR sort gate)>
high polyreactivity

$$$$
>  <SEQUENCE_CONTENT>
QVQLVESGGGLVQAGGSLRLSCAASGSIFGSYAKGCYIQAPGKERELVAAITRAGSTNYADSVKGRFTISRDNGKNTVYLQMNSLKPEDTAVYYCNATGKSTYVLSPVPGAYDYWGQGTQVTVSS

>  <polyreactivity (PSR sort gate)>
low polyreactivity

$$$$
>  <SEQUENCE_CONTENT>
QGQLVESGGGLDQAGGSLRLSCAASGSIFHGNAMGWYRQAPGKERELVAVISDGGYTDYADSVKGRFTISRDNAKNTVYLQMNSLKPEDTAGYYCNADYDTQYFYRNPIYYLSGYDYRGQGTQVTVSS

>  <polyreactivity (PSR sort gate)>
low polyreactivity

$$$$
>  <SEQUENCE_CONTENT>
QVQLVESGGGLVQAGGSLRLSCAASGRIFYLYTMGWYRQAPGKEREFSTYYADSVKGRFTISRDNAKNTVYLQMNCLKPEDTAVYYCAAADHPPVWYGYWGQGTQVTVSS

>  <polyreactivity (PSR sort gate)>
low polyreactivity

$$$$

Name the recorded polyreactivity (PSR sort gate) for AVQLVESGGGLVQAGGSLRLSCAASGSIFPWYTMGWYRQAPGKERELVASITKSGARTYYADSVKGRFTISRDNAKNTVYLQMNSLKPEDTAVYYCAAVYPVWKYHYAYWGQGTQVTVSS .
high polyreactivity

# iterate: QVQLVESVGGLVQAGGRLRLSCAASGSTFRYYAMGRYRPATGKESELVAAISRSGGSTYYADSVKGRFTISRDNAKNTVYLQMNSLKTEDTAVYYSNGRYYTFYSIYDYWGQGTQVTVSS
high polyreactivity

# iterate: QVQLVESGGGLVQAGGSLRLSCAASGSIFRRYAMGWYRQAPGKERELVATISYRGGTTYYADSVKVRFTISRDNAKNTVYLQMNSLKPEDTAVYYCNTLYYRGIYDHWGQGTQVTVSS
high polyreactivity

# iterate: QVQLVESGGGLVQAGGSLRLSCAASGRISLRNGMGWYRQAPGKERELVAAISRGGSTYYADSVKGRFTISRDNAKNTVYLHMNSLKPEDTAVYYCNAYIRPIYVDDDYWGQSTQVTVSS
low polyreactivity

# iterate: QVQLVESGGGLVQAGGSLRLSCAASGNTFPPNAMGWYRQAPGKERELVAAISWSGDSTYYADSVKGRFTISRDNAKNTVYLQMNSLKPEDTAVYYCAAAIFGEYEYWGQGTQVTVSS
low polyreactivity

# iterate: QVQLVESGRGLVQAGGSLRLSCAASGSTFAPYTMGWYRQAPGKERELVAAISWNGGRTSYADSVKGRFTISRDNAKNTVYLQMNSLKPEDTAVYYCATRRIWTQSYDGGLYGYYYWGQGTQVTVSS
high polyreactivity
